GI50 by entry:
test system: MDA-MB-468 breast; experiment: NCI tumour cell line growth inhibition, 48 h

Cc1cc(N2CCOCC2)nc(N(CCNc2ccnc3cc(Cl)ccc23)Cc2ccco2)n1 :: 2.09 µM
NC(=O)c1ncn(C2OC(CO)C(O)C2O)n1 (centres undefined) :: 69.7 µM
Cn1c(=O)c(Sc2ccccc2F)cc2cnc(NC3CCOCC3)nc21 :: > 25 µM

// GI50 value for "Clc1ccc(-c2nc(-c3c[nH]c4ncccc34)cs2)cc1" : > 100 µM

// GI50 value for "Clc1ccc(N/N=C/c2ccccn2)nc1" : 0.26 µM

// GI50 value for "COc1cc(-c2nn(C)nc2-c2cc3ccccc3s2)cc(OC)c1OC" : 0.0828 µM

// GI50 value for "O=C(/C=C\c1cccc([N+](=O)[O-])c1)c1ccccc1" : 1.65 µM

// GI50 value for "CCc1ccc(/C(C#N)=C/C=C/c2ccccc2)cc1" : 0.838 µM

// GI50 value for "O=[N+]([O-])c1ccc(Oc2cccnc2)c([N+](=O)[O-])c1" : 3.06 µM

====

TGI by entry:
tested on: MDA-MB-468 breast; assay: NCI tumour cell line growth inhibition, 48 h
Quick reminder: number only, in µM, skip the unit.

// below: answered compounds
CC(C)[C@@H]1NC(=O)[C@]2(C)CSC(=N2)c2csc(n2)CNC(=O)C[C@@H](/C=C/CCS)OC1=O :: 4.43
O=C(c1ccc(F)c(F)c1Nc1ccc(I)cc1F)N1CC(O)([C@H]2CCCCN2)C1 :: 10.7
CCCCCCCCCCCCCCCCCC(=O)[O][Sn]([CH2]CCC)([CH2]CCC)[CH2]CCC :: 0.214
Cc1cc(N2CCOCC2)nc(N(CCNc2ccnc3cc(Cl)ccc23)Cc2ccco2)n1 :: 6.41
Nc1cccc(-c2nc3sccn3c2-c2ccnc(NCCCNS(=O)(=O)c3ccc(C(F)(F)F)cc3)n2)c1 :: 33.8
N#Cc1cc(-c2ccccc2)[nH]c1-c1nccc2ccccc12 :: 44.9

Now consider the entry below.
// TGI value for "COc1ccc(Nc2nc(NCc3ccccc3)c3ccccc3n2)cc1" : 3.37

====

system: MDA-MB-468 breast; assay: NCI tumour cell line growth inhibition, 48 h
Measurement name: log10(TGI) (log10 of the value in µM)
Note the log scale: values are log10 of TGI expressed in µM.

// below: answered compounds
CC1=C(CN(O)C(N)=O)C2=C(C)C3(CC3)[C@@](C)(O)C(=O)C2=C1 :: -0.46
O=C(Nc1cccc(-n2cc(-c3ccncc3)c(-c3cc(O)cc(Cl)c3)n2)c1)Nc1ccc(Cl)c(Cl)c1 :: 0.85
Clc1cccc(Cn2cc(Cc3cn(Cc4cccc(Cl)c4)c4ccccc34)c3ccccc32)c1 :: 1.57
CCc1ccc(/C(C#N)=C/C=C/c2ccccc2)cc1 :: 0.99
COc1cccc(N2CCN(c3ncnc4c3[nH]c3ccc(F)cc34)C[C@@H]2C)c1 :: 0.73

// log10(TGI) value for "O=C(O[C@H]1CN[C@H](C#Cc2cc3ncnc(Nc4ccc(Cc5ccccc5)cc4)c3s2)C1)N1CCOCC1" : 0.80

// log10(TGI) value for "O=C(/C=C/c1ccccc1Cl)c1ccc(O)cc1" : 1.11

====

test system: MDA-MB-468 breast; assay: NCI tumour cell line growth inhibition, 48 h; in the data active = GI50 below about 0.43 µM; inactive = the rest
Log the outcome using a class from active, inactive

Observe how each entry below is paired with its result.
O=C(/C=C/c1ccccc1O)c1ccccc1 :: inactive
Cc1oncc1C(=O)Nc1ccc(C(F)(F)F)cc1 :: inactive
CCS(=O)(=O)c1ccc(OC)c(Nc2ncc(-c3cccc(-c4ccccc4F)c3)o2)c1 :: inactive

# input Which outcome was entered for the compound "O=Cc1ncc(-c2ccc(C(F)(F)F)cc2)c(NC2CCCCCC2)n1" in this test?
# output inactive

# input Which outcome was entered for the compound "O=C(Nc1cccc(-n2cc(-c3ccncc3)c(-c3cc(O)cc(Cl)c3)n2)c1)Nc1ccc(Cl)c(Cl)c1" in this test?
# output inactive

# input Which outcome was entered for the compound "CCCCCCCCCCCCCCCCCC(=O)[O][Sn]([CH2]CCC)([CH2]CCC)[CH2]CCC" in this test?
# output active

====

system: MDA-MB-468 breast; experiment: NCI tumour cell line growth inhibition, 48 h
TGI by entry:

NC(=O)c1ncn(C2OC(CO)C(O)C2O)n1 (stereo not drawn) :: > 100 µM

Short answer on MDA-MB-468 breast for "Cc1ccccc1NC(=O)N/C(N)=N/c1nc2ccccc2s1" , TGI: > 100 µM

Short answer on MDA-MB-468 breast for "Cn1c(=O)c(Sc2ccccc2F)cc2cnc(NC3CCOCC3)nc21" , TGI: > 25 µM
